- target-entity: mAb F240
- assay-comment: Isothermal Titration Calorimetry (ITC) of F240 with gp41 peptides
- Format: binding
- run-conditions: 25 °C, 1X PBS pH 7.4, F240 111 μM in syringe, peptide 11 μM in cell, single-site model; read-out: dissociation constant KD
readout: Kd (µM)
Lab book: enter the figure in µM, no units written.

Kd lookup needed for VERYLRDQQL[10] LGIWGCSGKL[20] ICTTAVPWNA[30] SWSNKS (disulfide) [gp41_583–618] , thanks.
0.034

Provenance of the data: paper PMC5101508
